Molecular target: RPA (wild type) (Homo sapiens, UniProt P27694;P15927;P35244 1-616;1-270;1-121)
Sequence (P27694 whole entry, chain 1 of 3): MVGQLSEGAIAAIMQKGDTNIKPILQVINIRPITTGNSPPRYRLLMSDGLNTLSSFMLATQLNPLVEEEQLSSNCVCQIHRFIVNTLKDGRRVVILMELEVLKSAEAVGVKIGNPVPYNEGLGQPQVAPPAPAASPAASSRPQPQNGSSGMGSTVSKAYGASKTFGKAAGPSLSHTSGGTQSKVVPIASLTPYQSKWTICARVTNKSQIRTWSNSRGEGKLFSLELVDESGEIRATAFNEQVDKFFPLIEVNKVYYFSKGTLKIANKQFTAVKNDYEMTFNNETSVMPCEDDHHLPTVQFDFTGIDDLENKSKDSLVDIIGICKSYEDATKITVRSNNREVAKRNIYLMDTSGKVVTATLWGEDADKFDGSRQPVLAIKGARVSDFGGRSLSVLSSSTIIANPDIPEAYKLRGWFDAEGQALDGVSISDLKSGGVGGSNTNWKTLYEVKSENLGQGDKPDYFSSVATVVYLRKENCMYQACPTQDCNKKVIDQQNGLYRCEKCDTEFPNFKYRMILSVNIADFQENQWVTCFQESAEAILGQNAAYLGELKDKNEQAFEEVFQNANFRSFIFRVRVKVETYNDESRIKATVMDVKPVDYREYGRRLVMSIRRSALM
Sequence (P15927 whole entry, chain 2 of 3): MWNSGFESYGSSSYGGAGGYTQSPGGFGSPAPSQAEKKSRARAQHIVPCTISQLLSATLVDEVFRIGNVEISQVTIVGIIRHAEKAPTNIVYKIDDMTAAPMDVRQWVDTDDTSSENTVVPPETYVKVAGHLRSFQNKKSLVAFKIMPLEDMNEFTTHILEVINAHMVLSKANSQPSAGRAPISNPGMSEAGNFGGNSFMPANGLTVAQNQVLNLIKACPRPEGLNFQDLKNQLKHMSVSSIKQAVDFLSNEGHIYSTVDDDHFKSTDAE
Sequence (P35244 whole entry, chain 3 of 3): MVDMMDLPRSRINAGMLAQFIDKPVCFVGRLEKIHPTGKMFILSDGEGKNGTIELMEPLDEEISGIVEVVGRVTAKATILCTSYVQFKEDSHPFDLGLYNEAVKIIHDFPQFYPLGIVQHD
Experiment: stopped-flow Trp fluorescence (koff/kon); kon 5.2e10 M-1 s-1, koff 39 s-1 as printed; Stopped flow: 30 mM HEPES pH 7.8, 100 mM KCl, 5 mM MgCl2, 6% glycerol, 1 mM b-ME, 25 C; anisotropy: 50 mM Tris-acetate pH 7.5, 50 mM KCl, 5 mM MgCl2, 1 mM DTT
Details: protein: recombinant; copies: 1;1;1
parameter: Kd (nM)

• TTTTTTTTTTTTTTTTTTTTTTTTTTTTTTTTTTT (ssDNA) [(dT)35] = 0.75

Provenance of the data: paper PMC10212944
